- Test Target: Serine protease 1 (Bos taurus)
- Sequence (P00760 whole entry): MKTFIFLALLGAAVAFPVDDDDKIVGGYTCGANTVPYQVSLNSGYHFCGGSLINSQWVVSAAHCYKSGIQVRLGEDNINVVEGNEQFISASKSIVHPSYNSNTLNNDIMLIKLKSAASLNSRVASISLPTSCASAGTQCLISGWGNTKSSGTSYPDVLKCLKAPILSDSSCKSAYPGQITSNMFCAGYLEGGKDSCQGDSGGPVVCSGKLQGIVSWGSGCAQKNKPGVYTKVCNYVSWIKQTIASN
- Experimental Details: Inhibitory activity against bovine Trypsin

{"Smiles Notation": "COc1ccc(C)cc1S(=O)(=O)Oc1cccc(OCCc2ccc(C(=N)N)c(O)c2)c1", "Ki, µM": 28.2}

====

compounds and their reported CE logK'
- Experimental Details: Estimation of membrane permeability by migration behavior in micellar media
- Type: ADME
Measure Name: CE logK'

{"Smiles Notation": "COc1ccc(C)cc1S(=O)(=O)Oc1cccc(OCCc2ccccc2)c1", "Number": 1.4}
{"Smiles Notation": "Cc1cc(OCCc2ccccc2)cc(OS(=O)(=O)c2ccccc2)c1", "Number": 1.51}
{"Smiles Notation": "Cc1cc(OCCc2ccc(C(=N)N)c(O)c2)cc(OS(=O)(=O)c2cccc(C)c2)c1", "Number": 1.16}
{"Smiles Notation": "COc1ccc(C)cc1S(=O)(=O)Oc1cccc(OCCc2ccc(C(=N)N)c(O)c2)c1", "Number": 1.08}
{"Smiles Notation": "CCc1cc(OCCc2ccc(C(=N)N)c(O)c2)cc(OS(=O)(=O)c2cc(Cl)cc(Cl)c2OC)c1", "Number": 1.27}
{"Smiles Notation": "CCc1cc(OCCc2cccc(O)c2)cc(OS(=O)(=O)c2ccccc2)c1", "Number": 1.42}
{"Smiles Notation": "CCc1cc(OCCc2ccc(CN)cc2)cc(OS(=O)(=O)c2cc(C)ccc2OC)c1", "Number": 0.87}
{"Smiles Notation": "O=S(=O)(Oc1cccc(OCCc2cccc(O)c2)c1)c1cccc(Cl)c1Cl", "Number": 1.41}
{"Smiles Notation": "Cc1cc(OCCc2ccc(CN)c(O)c2)cc(OS(=O)(=O)c2cc(Cl)ccc2Cl)c1", "Number": 0.98}
{"Smiles Notation": "CCc1cc(OCCc2cccc(O)c2)cc(OS(=O)(=O)c2cc(C)ccc2OC)c1", "Number": 1.3}
{"Smiles Notation": "CCc1cc(OCCc2ccccc2)cc(OS(=O)(=O)c2cc(Cl)ccc2Cl)c1", "Number": 1.85}
{"Smiles Notation": "CCc1cc(OCCc2ccc(C(=N)N)cc2)cc(OS(=O)(=O)c2ccccc2)c1", "Number": 0.88}
{"Smiles Notation": "Cc1cccc(S(=O)(=O)Oc2cccc(OCCc3ccc(CN)cc3)c2)c1", "Number": 0.89}
{"Smiles Notation": "Cc1cc(OCCc2ccc(CN)cc2)cc(OS(=O)(=O)c2cccc(Cl)c2Cl)c1", "Number": 0.97}
{"Smiles Notation": "CCc1cc(OCCc2ccc(CN)c(O)c2)cc(OS(=O)(=O)c2cccc(Cl)c2Cl)c1", "Number": 1.08}
{"Smiles Notation": "COc1c(Cl)cc(Cl)cc1S(=O)(=O)Oc1cc(C)cc(OCCc2cccc(O)c2)c1", "Number": 1.57}
{"Smiles Notation": "COc1c(Cl)cc(Cl)cc1S(=O)(=O)Oc1cccc(OCCc2ccc(C(=N)N)cc2)c1", "Number": 0.96}
{"Smiles Notation": "NCc1ccc(CCOc2cccc(OS(=O)(=O)c3ccccc3)c2)cc1O", "Number": 0.85}

====

- Test Target: Prothrombin (Homo sapiens)
- Experimental Details: Inhibitory activity against thrombin

{"Smiles Notation": "COc1c(Cl)cc(Cl)cc1S(=O)(=O)Oc1cccc(OCCc2ccc(C(=N)N)cc2)c1", "Test Target": "Prothrombin (Homo sapiens)", "IC50 / nM": 56.2}
{"Smiles Notation": "COc1ccc(C)cc1S(=O)(=O)Oc1cccc(OCCc2ccc(C(=N)N)c(O)c2)c1", "Test Target": "Prothrombin (Homo sapiens)", "IC50 / nM": 575}
{"Smiles Notation": "NCc1ccc(CCOc2cccc(OS(=O)(=O)c3ccccc3)c2)cc1O", "Test Target": "Prothrombin (Homo sapiens)", "IC50 / nM": 10700}
{"Smiles Notation": "CCc1cc(OCCc2ccc(C(=N)N)cc2)cc(OS(=O)(=O)c2ccccc2)c1", "Test Target": "Prothrombin (Homo sapiens)", "IC50 / nM": 25.1}

====

compounds and their reported pKa
- Experimental Details: Estimation of membrane permeability
- Format: ADME
Measure Name: pKa

{"Smiles Notation": "NCc1ccc(CCOc2cccc(OS(=O)(=O)c3ccccc3)c2)cc1O", "Measure Name": "pKa", "Number": 8.3}
{"Smiles Notation": "CCc1cc(OCCc2ccc(C(=N)N)c(O)c2)cc(OS(=O)(=O)c2cc(Cl)cc(Cl)c2OC)c1", "Measure Name": "pKa", "Number": 6.3}
{"Smiles Notation": "CCc1cc(OCCc2ccc(CN)c(O)c2)cc(OS(=O)(=O)c2cccc(Cl)c2Cl)c1", "Measure Name": "pKa", "Number": 8.3}
{"Smiles Notation": "CCc1cc(OCCc2ccc(C(=N)N)cc2)cc(OS(=O)(=O)c2ccccc2)c1", "Measure Name": "pKa", "Number": 10.9}
{"Smiles Notation": "COc1ccc(C)cc1S(=O)(=O)Oc1cccc(OCCc2ccc(C(=N)N)c(O)c2)c1", "Measure Name": "pKa", "Number": 6.2}
{"Smiles Notation": "Cc1cc(OCCc2ccc(CN)cc2)cc(OS(=O)(=O)c2cccc(Cl)c2Cl)c1", "Measure Name": "pKa", "Number": 9}
{"Smiles Notation": "COc1c(Cl)cc(Cl)cc1S(=O)(=O)Oc1cccc(OCCc2ccc(C(=N)N)cc2)c1", "Measure Name": "pKa", "Number": 10.5}
{"Smiles Notation": "Cc1cc(OCCc2ccc(C(=N)N)c(O)c2)cc(OS(=O)(=O)c2cccc(C)c2)c1", "Measure Name": "pKa", "Number": 6.3}
{"Smiles Notation": "Cc1cccc(S(=O)(=O)Oc2cccc(OCCc3ccc(CN)cc3)c2)c1", "Measure Name": "pKa", "Number": 9.4}
{"Smiles Notation": "CCc1cc(OCCc2ccc(CN)cc2)cc(OS(=O)(=O)c2cc(C)ccc2OC)c1", "Measure Name": "pKa", "Number": 9.3}
{"Smiles Notation": "Cc1cc(OCCc2ccc(CN)c(O)c2)cc(OS(=O)(=O)c2cc(Cl)ccc2Cl)c1", "Measure Name": "pKa", "Number": 8.6}

Recorded values, source ChEMBL document CHEMBL1134416.
